Please provide measured growth inhibition for the entries that follow.
Test: NCI Yeast Anticancer Drug Screen. Data for the rad50 strain (AID 155);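 note: 0% = growth of vehicle-only cultures of the same strain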
Settings: S. cerevisiae rad50 strain growth inhibition; at 50.0 µM; hits give high values
This is part of a sample that, as a whole, favours compounds with a hit. Of some 79,000 tested, about 15% had one in any assay.
One number for each entry, in %.

Past entries and their recorded results:
Would you kindly share the measured growth inhibition for CCOC(=O)N1Cc2cc3ccccc3nc2C1CC(=O)O (stereo unspecified) ?
-14.8

Would you kindly share the measured growth inhibition for "NC(=O)c1csc(Nc2csc(N)n2)n1" ?
-6.05

Would you kindly share the measured growth inhibition for "CCOC(=O)Nc1nc2ccn(C)c2s1" ?
6.3

Would you kindly share the measured growth inhibition for "O=C1COC(=O)N1" ?
-6.85

Would you kindly share the measured growth inhibition for "c1ccc(CN2C3C4N(Cc5ccccc5)C2C2N(Cc5ccccc5)C(C(N2Cc2ccccc2)N4Cc2ccccc2)N3Cc2ccccc2)cc1" ?
10.1

Would you kindly share the measured growth inhibition for "COc1cc2cccc(NC(=O)c3cc(OC)c(OC)c(OC)c3Br)c2cc1OC" ?
31.4

Would you kindly share the measured growth inhibition for N#CC1=C(c2ccccc2)NN(Cc2ccccc2)C(c2ccc(Cl)cc2)CC1=O (stereo unspecified) ?
31.9

Would you kindly share the measured growth inhibition for COc1cc(C(c2c(O)c3ccccc3oc2=O)N2CCCC2)cc(OC)c1OC (stereo unspecified) ?
-1.2

Each of the following entries comes with a recorded value; kindly state growth inhibition for each.
1. CC(NC1=CC(=O)c2cccnc2C1=O)C(O)c1ccccc1 (stereo unspecified)
2. O=C/C=C/C=C/C=C/c1ccccc1
3. COc1ccc(CC(=O)O)cc1OC
4. COc1ccc(/C=N/N=C/c2ccc(OC)cc2)cc1
5. C=CC1C(C(=O)Nc2ccccc2)CN1C (stereo unspecified)
6. C=C(C)C(O)C(O)c1c(OC)ccc2ccc(=O)oc12 (stereo unspecified)

1. 82.8
2. 32.6
3. 23.9
4. 22.3
5. 7.1
6. -3.65

Each of the following entries comes with a recorded value; kindly state growth inhibition for each.
1. CCc1ccccc1Cc1ccccc1
2. CN(C)Cc1cc(N=Nc2c(Cl)cccc2Cl)ccc1O
3. c1ccc(-c2cc(-c3ccccc3)c(-c3ccccc3)c(-c3ccccc3)c2)cc1
4. NC(=O)C[n+]1cccc(C(=O)Nc2ccc(Cl)cc2)c1
5. O=C(Cl)c1cc2ccccc2c2c(=O)c3ccc4cc5ccccc5cc4c3[nH]c12

1: 1.8; 2: 14.4; 3: 32.1; 4: 2.3; 5: -51.6
